target: DNA polymerase iota (Homo sapiens) (UniProt Q9UNA4); assay: qHTS for Inhibitors of Polymerase Iota; conditions: Pol iota fluorescent replication assay, 10 min; series mostly up to 115 µM
Sequence (Q9UNA4 whole entry, looked up): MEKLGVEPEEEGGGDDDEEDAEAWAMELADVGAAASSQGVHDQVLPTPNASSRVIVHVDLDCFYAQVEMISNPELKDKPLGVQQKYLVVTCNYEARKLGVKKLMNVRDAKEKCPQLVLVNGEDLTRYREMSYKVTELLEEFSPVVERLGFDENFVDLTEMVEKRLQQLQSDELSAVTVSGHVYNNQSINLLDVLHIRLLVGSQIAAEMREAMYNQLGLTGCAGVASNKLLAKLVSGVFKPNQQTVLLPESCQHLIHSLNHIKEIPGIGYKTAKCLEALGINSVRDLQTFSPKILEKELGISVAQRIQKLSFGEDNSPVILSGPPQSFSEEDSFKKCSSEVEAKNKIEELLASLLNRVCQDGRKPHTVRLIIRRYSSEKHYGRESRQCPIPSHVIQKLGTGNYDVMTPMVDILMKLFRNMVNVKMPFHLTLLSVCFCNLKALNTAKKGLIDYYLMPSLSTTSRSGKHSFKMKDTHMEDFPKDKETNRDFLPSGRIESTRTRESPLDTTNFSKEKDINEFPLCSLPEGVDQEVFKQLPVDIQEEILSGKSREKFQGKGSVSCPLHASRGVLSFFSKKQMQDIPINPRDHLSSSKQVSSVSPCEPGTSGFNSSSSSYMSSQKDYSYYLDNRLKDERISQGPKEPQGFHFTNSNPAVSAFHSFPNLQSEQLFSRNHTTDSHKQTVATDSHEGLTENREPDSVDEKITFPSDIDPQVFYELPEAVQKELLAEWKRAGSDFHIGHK
Screen size: about 390,000 compounds; about 4,000 (1%) were called active. Inconclusive results (about 7%) are left out. Calls come from the whole dose curve; as a rule, active = well fitted inhibition curve with a large enough effect; inconclusive = small, poorly fitted or top-dose-only effect, or another doubt; inactive = no such curve, though single readings can be large or run the other way. Only a selection was taken, and actives are over-represented in it overall.
Allowed answers: Y (active), N (inactive)

Data request: Outcome logged for COc1cc(-c2n[nH]c(=S)n2Cc2ccccc2)cc(OC)c1OC in this assay:
Data returned: N

Data request: Outcome logged for Cc1cc(-c2n[nH]c(=S)n2-c2ccc(C)c(C)c2)no1 in this assay:
Data returned: N

Data request: Outcome logged for COc1ccccc1-n1c(-c2cc(-c3ccco3)[nH]n2)n[nH]c1=S in this assay:
Data returned: Y

Data request: Outcome logged for Cn1c(=O)nc2n(-c3ccc(Br)cc3)c3cccc(Cl)c3cc-2c1=O in this assay:
Data returned: N

Data request: Outcome logged for Cc1ccc(NC(=O)c2cc(S(=O)(=O)NCCC3=CCCCC3)ccc2F)cc1C in this assay:
Data returned: N

Data request: Outcome logged for CCN(CC)/[N+]([O-])=N/OCOC(=O)Cc1c(C)n(C(=O)c2ccc(Cl)cc2)c2ccc(OC)cc12 in this assay:
Data returned: N

Data request: Outcome logged for COc1cc2nc(C#Cc3nc4cc(OC)c(OC)cc4[nH]3)[nH]c2cc1OC in this assay:
Data returned: N

Data request: Outcome logged for CCOc1ccc(Nc2oc(/C=C/c3ccc(F)cc3)nc2C#N)cc1 in this assay:
Data returned: N

Data request: Outcome logged for COc1ccc(Cl)cc1S(=O)(=O)N1CCN(CC(=O)C(C)(C)C)CC1 in this assay:
Data returned: N

Data request: Outcome logged for N#Cc1ccsc1NC(=O)CN1CCN(S(=O)(=O)c2cc(Cl)ccc2Cl)CC1 in this assay:
Data returned: N

Data origin: PubChem BioAssay AID588590
